From: patent US8486991B2

Target: HIV-1 RT L1001/K103N (L100I/K103N) mutant enzyme (Human immunodeficiency virus type 1 group M subtype B, UniProt P03366, K702N/L699I)
Construct: Antiviral in vitro activity against site-directed mutant HIV-1 RT enzymes
Experiment: biochemical
Measurement Type: IC50

(Q) Form field: reported IC50 of CO[P@](=O)(c1cc(C)cc(/C=C/C#N)c1)c1c(C(N)=O)[nH]c2ccc(Cl)cc12
(A) 400 nM

(Q) Now the molecule CO[P@](=O)(c1cc(C)cc(/C=C/C#N)c1)c1c(C(N)=O)[nH]c2ccc(Cl)c(F)c12
(A) 430 nM

* * *

I'd appreciate it if you could supply IC50 values for the items below.
Target: human DNA polymerase beta (Homo sapiens, UniProt P06746)
Assay: Human cellular DNA polymerase beta assay
Assay type: biochemical
Details: Table 5; read-out: Average IC50 Values ± Standard Deviation, DNA Pol Beta
*1 amine or outer side, *2 acyl side, *3 side chain or, on linkers, in order; H or OH if unused. Where a SMILES comes first, the peptide text is derived from it. Bridges are numbered along the chain shown (N, C = ends). Roman numbers before positions name the chains, in order. [ ]: non-standard residue; d: D form. Actinocin(9to1) = Cc1c2oc3c(C)ccc(C(=O)[*:1])c3nc-2c(C(=O)[*:2])c(N)c1=O; NMeV = CN[C@H](C(=O)O)C(C)C; Sar = CNCC(=O)O
Field format: number, assumed µM, no unit text.

(Q) Lab request: please report IC50 under test system human DNA polymerase beta (Homo sapiens, UniProt P06746) for O=C1Nc2ccc(Cl)cc2C(C#CC2CC2)(C(F)(F)F)O1 (stereo not drawn) [EFV, reference compound]
(A) 314

(Q) Now the compound Cc1c2oc3c(C)ccc(C(=O)N[C@@H]4C(=O)N[C@H](C(C)C)C(=O)N5CCC[C@H]5C(=O)N(C)CC(=O)N(C)[C@@H](C(C)C)C(=O)O[C@@H]4C)c3nc-2c(C(=O)N[C@@H]2C(=O)N[C@H](C(C)C)C(=O)N3CCC[C@H]3C(=O)N(C)CC(=O)N(C)[C@@H](C(C)C)C(=O)O[C@@H]2C)c(N)c1=O [Act. D, actinomycin D, reference compound] (I: T[dV]P[Sar][NMeV] / II: T[dV]P[Sar][NMeV]; ester I:1-I:C, II:1-II:C; linker I:N-II:N via Actinocin(9to1))
(A) 23

* * *

Experiment: Cellular cytotoxicity, 4 days, six HIV-1 host cell lines (ranges)
Assay type: cell-based
Details: human, read-out: Mean CC50 Range
I'd appreciate it if you could supply CC50 at 4 days values for the items below.

(Q) Form field: reported CC50 at 4 days of CO[P@](=O)(c1cc(C)cc(/C=C/C#N)c1)c1c(C(N)=O)[nH]c2ccc(Cl)cc12
(A) 14.8 to 50 µM

(Q) Now the compound O=C1Nc2ccc(Cl)cc2C(C#CC2CC2)(C(F)(F)F)O1 (stereo not drawn) [EFV, reference compound]
(A) 23.2 to 51 µM

(Q) Now the compound CO[P@](=O)(c1cc(C)cc(/C=C/C#N)c1)c1c(C(N)=O)[nH]c2ccc(Cl)c(F)c12
(A) 16.6 to 32.9 µM

* * *

Assay: In vitro half-life in liver microsomes, rat
Type: in vitro ADME
Details: liver microsomes, up to one hour, longer half-lives are extrapolated, n=1
Measurement Type: half-life at 1 μM (min)
Field format: number, assumed min, no unit text.

(Q) Form field: reported half-life at 1 μM of CO[P@](=O)(c1cc(C)cc(/C=C/C#N)c1)c1c(C(N)=O)[nH]c2ccc(Cl)cc12
(A) 88.8

* * *

Tested on: HIV-1 W.T. strains BH10, NL4-3 and IIIB
Assay: Drug susceptibility assays, 3 W.T. strains in 5 human cell lines (ranges)
Type: cell-based
Details: Human immunodeficiency virus 1, Table 17; over all virus/host combinations; read-out: Mean Activity Range
Measurement Type: pEC50
# reply with the number alone; pEC50 is -log10 of concentration in mol/L

(Q) Form field: reported pEC50 of CO[P@](=O)(c1cc(C)cc(/C=C/C#N)c1)c1c(C(N)=O)[nH]c2ccc(Cl)cc12
(A) 9.30

(Q) Now the compound O=C1Nc2ccc(Cl)cc2C(C#CC2CC2)(C(F)(F)F)O1 (centres unmarked) [EFV, reference compound]
(A) 9.10

* * *

Test: Compound depletion in hepatocytes, human
Type: in vitro ADME
Conditions: human, hepatocytes, up to 2 hours, read-out: t½, Compound Depletion in Hepatocytes, Human
Experimental: Fresh hepatocytes were plated onto collagen-coated plates and exposed to test compounds at 1 μM for up to 2 hours. Tissue culture medium was assayed for compound depletion by LC/MS detection. Values in Table 23 represent independent experiments from 5 to 7 donors.
Measurement Type: half-life at 1 μM
Mention the unit after the number when you answer.

(Q) Form field: reported half-life at 1 μM of CO[P@](=O)(c1cc(C)cc(/C=C/C#N)c1)c1c(C(N)=O)[nH]c2ccc(Cl)c(F)c12
(A) 3.58 h

* * *

Test system: HIV-1 W.T. (BH10) virus
Test: PBMC cell assay, W.T. (BH10)
Type: cell-based
Conditions: Human immunodeficiency virus 1, PBMC, read-out: mean EC50, BH-10 strain in human PBMC
I'd appreciate it if you could supply EC50 values for the items below.
Field format: number, assumed nM, no unit text.

(Q) Form field: reported EC50 of CO[P@](=O)(c1cc(C)cc(/C=C/C#N)c1)c1c(C(N)=O)[nH]c2ccc(Cl)cc12
(A) 0.4

(Q) Now the compound CO[P@](=O)(c1cc(C)cc(/C=C/C#N)c1)c1c(C(N)=O)[nH]c2ccc(Cl)c(F)c12
(A) 0.4

* * *

Biological target: wild-type HIV-1 RT enzyme in BH10 backbone (Human immunodeficiency virus type 1 group M subtype B, UniProt P03366)
Construct: wild-type HIV RT enzyme derived from HIV subtype B (BH-10 strain)
Experiment: biochemical
Settings: Average IC50 Values ± Standard Deviation, W.T., Table 3; N=10
Measurement Type: pIC50
# reply with the number alone; pIC50 is -log10 of concentration in mol/L

(Q) Form field: reported pIC50 of CO[P@](=O)(c1cc(C)cc(/C=C/C#N)c1)c1c(C(N)=O)[nH]c2ccc(Cl)c(F)c12
(A) 6.64

(Q) Now the compound CO[P@](=O)(c1cc(C)cc(/C=C/C#N)c1)c1c(C(N)=O)[nH]c2ccc(Cl)cc12
(A) 6.68

* * *

Tested on: HIV-1 BH10 K103N mutant virus
Assay: microbe, parasite or virus in culture
Type: cell-based
Settings: Human immunodeficiency virus 1, MT4, read-out: EC50, K103N
Measurement Type: pEC50
# reply with the number alone; pEC50 is -log10 of concentration in mol/L

(Q) Lab request: please report pEC50 under test system HIV-1 BH10 K103N mutant virus for CO[P@@](=O)(c1cc(C)cc(/C=C/C#N)c1)c1c(C(N)=O)[nH]c2ccc(Cl)c(F)c12
(A) 6.56

(Q) Now the compound CO[P@](=O)(c1cc(C)cc(/C=C/C#N)c1)c1c(C(N)=O)[nH]c2ccc(Cl)cc12
(A) 9.85

(Q) Now the compound CO[P@@](=O)(c1cc(C)cc(/C=C/C#N)c1)c1c(C(N)=O)[nH]c2ccc(Cl)cc12
(A) 9.52

(Q) Now the compound CO[P@](=O)(c1cc(C)cc(/C=C/C#N)c1)c1c(C(N)=O)[nH]c2ccc(Cl)c(F)c12
(A) 9.59

* * *

Experiment: Compound depletion in hepatocytes, rat
Format: in vitro ADME
Conditions: fresh hepatocytes plated on collagen-coated plates, up to 2 hours, read-out: t½, Compound Depletion in Hepatocytes, Rat
Experimental: Fresh hepatocytes were plated onto collagen-coated plates and exposed to test compounds at 1 μM for up to 2 hours. Tissue culture medium was assayed for compound depletion by LC/MS detection. Values in Table 23 represent independent experiments from 5 to 7 donors.
Measurement Type: half-life at 1 μM
Mention the unit after the number when you answer.

(Q) Form field: reported half-life at 1 μM of CO[P@](=O)(c1cc(C)cc(/C=C/C#N)c1)c1c(C(N)=O)[nH]c2ccc(Cl)cc12 [Compound III]
(A) 17 min

* * *

Test: Plasma protein binding by equilibrium dialysis, rat
Type: in vitro ADME
Conditions: rat, rat plasma, read-out: Percentage Plasma Protein Binding, Rats
Protocol: The in vitro plasma protein binding of compound I and compound III in rat, dog, monkey and human plasma was determined by equilibrium dialysis. Protein binding was assessed by equilibrium dialysis using rat, dog, monkey and human plasma. Samples were assayed by HPLC with LC-MS/MS detection. Plasma protein binding was high (>99%) for all species and for both compounds.
Measurement Type: fraction unbound

(Q) Form field: reported fraction unbound of CO[P@](=O)(c1cc(C)cc(/C=C/C#N)c1)c1c(C(N)=O)[nH]c2ccc(Cl)cc12
(A) < 0.01

* * *

Assay: In vivo pharmacokinetics, monkeys
Design: species or system monkey
Settings: male, monkey, in vivo, po, 5 mg/kg, 5 mg/kg PO-Fed, 3M, median
Measurement Type: Tmax (h)
Field format: number, assumed h, no unit text.

(Q) Form field: reported Tmax of CO[P@](=O)(c1cc(C)cc(/C=C/C#N)c1)c1c(C(N)=O)[nH]c2ccc(Cl)c(F)c12
(A) 4
